- Test system: Staphylococcus aureus
- protocol: Antibacterial activity against methicilin-resistant Staphylococcus aureus NRS 194 assessed as reduction in bacterial growth
- Assay type: functional
In this section, each of the molecules is paired with its reported MIC.
measurement_kind: MIC (µg/mL)

In [3]: df
Out[3]:
                                   molecule  measured_value
0  C[C@@H](O)[C@H]1C(=O)N2C(C(=O)O)=C(S[C@@H]3CN[C@H](C(=O)N(C)C)C3)[C@H](C)[C@H]12               1
1  O=C1N/C(=N\c2nc3ccccc3o2)S/C1=C\c1cccc(O)c1               2
2  COc1cc(/C=C2\S/C(=N/c3nc4ccccc4o3)NC2=O)ccc1O               4
3  O=C1N/C(=N\c2nc3ccccc3o2)S/C1=C\c1ccc(O)cc1               2
4  O=C1N/C(=N\c2nc3ccccc3o2)S/C1=C\c1cc(Br)ccc1O               1
5  O=C1N/C(=N\c2nc3ccccc3o2)S/C1=C\c1cc(Cl)ccc1O               1
6  C[C@H]1COc2c(N3CCN(C)CC3)c(F)cc3c(=O)c(C(=O)O)cn1c23 [LEVOFLOXACIN ANHYDROUS]           0.125

----------
- System: Staphylococcus aureus
- protocol: Antibacterial activity against methicilin-resistant Staphylococcus aureus NRS 198 assessed as reduction in bacterial growth
- Assay type: functional
Reported log10(MIC) by item:
measurement_kind: log10(MIC) (log10 of the value in µg/mL)

>>> print(df.to_string())
                                   compound  measured_value
0  O=C1N/C(=N\c2nc3ccccc3o2)S/C1=C\c1cccc(O)c1            0.30
1  C[C@@H](O)[C@H]1C(=O)N2C(C(=O)O)=C(S[C@@H]3CN[C@H](C(=O)N(C)C)C3)[C@H](C)[C@H]12            1.81
2  O=C1N/C(=N\c2nc3ccccc3o2)S/C1=C\c1cc(Cl)ccc1O            0.00
3  O=C1N/C(=N\c2nc3ccccc3o2)S/C1=C\c1ccc(O)cc1            0.30
4  COc1cc(/C=C2\S/C(=N/c3nc4ccccc4o3)NC2=O)ccc1O            0.60
5  C[C@H]1COc2c(N3CCN(C)CC3)c(F)cc3c(=O)c(C(=O)O)cn1c23 [LEVOFLOXACIN ANHYDROUS]            1.51
6  O=C1N/C(=N\c2nc3ccccc3o2)S/C1=C\c1cc(Br)ccc1O            0.00

----------
- System: Staphylococcus aureus
- protocol: Antibacterial activity against methicilin-resistant Staphylococcus aureus NRS 119 assessed as reduction in bacterial growth
- Type: functional
Quick reference for MIC among some compounds
measurement_kind: MIC

                                   compound            test_target  measured_value
0  C[C@H]1COc2c(N3CCN(C)CC3)c(F)cc3c(=O)c(C(=O)O)cn1c23 [LEVOFLOXACIN ANHYDROUS]  Staphylococcus aureus        16 µg/mL
1  O=C1N/C(=N\c2nc3ccccc3o2)S/C1=C\c1cc(Br)ccc1O  Staphylococcus aureus         1 µg/mL
2  C[C@@H](O)[C@H]1C(=O)N2C(C(=O)O)=C(S[C@@H]3CN[C@H](C(=O)N(C)C)C3)[C@H](C)[C@H]12  Staphylococcus aureus        64 µg/mL
3  O=C1N/C(=N\c2nc3ccccc3o2)S/C1=C\c1ccc(O)cc1  Staphylococcus aureus         2 µg/mL
4  O=C1N/C(=N\c2nc3ccccc3o2)S/C1=C\c1cccc(O)c1  Staphylococcus aureus         2 µg/mL
5  COc1cc(/C=C2\S/C(=N/c3nc4ccccc4o3)NC2=O)ccc1O  Staphylococcus aureus         4 µg/mL
6  O=C1N/C(=N\c2nc3ccccc3o2)S/C1=C\c1cc(Cl)ccc1O  Staphylococcus aureus         1 µg/mL
